Data provenance: patent US5834453A

As shown below, each of these molecules has a reported MIC value.
# System: S. aureus (29213)
# TEST SUMMARY: MIC, micro-broth dilution
# Assay type: cell-based
# TEST SETTINGS: Staphylococcus aureus, 24 h, read-out: ANTIMICROBIAL ACTIVITY (MIC)
Give just the number in µg/mL; leave the unit off.

Worked examples follow.
C[C@H](CCC(=O)NCCCNCCCCNCCCN)[C@H]1CC[C@H]2[C@@H]3C[C@H](O)[C@@H]4C[C@H](O)CC[C@]4(C)[C@H]3CC[C@]12C ... 6.25
C[C@H](C(=O)NCCCNCCCCNCCCN)[C@H]1CC[C@H]2[C@@H]3CC=C4C[C@@H](O)CC[C@]4(C)[C@H]3CC[C@]12C ... 6.25
C[C@H](CCC(=O)NCCNCCNCCN)[C@H]1CC[C@H]2[C@@H]3C[C@H](O)[C@@H]4C[C@H](O)CC[C@]4(C)[C@H]3CC[C@]12C ... 25

Problem: Supply recorded MIC for C[C@H](CCC(=O)NCCCNCCCCNCCCN)[C@H]1CC[C@H]2[C@@H]3CC[C@@H]4C[C@H](O)CC[C@]4(C)[C@H]3C[C@H](O)[C@]12C [SM-7, deoxycholic acid-spermine conjugate] here.
Result: 1.56

* * *

# System: S. aureus (29213)
# TEST SUMMARY: MIC, micro-broth dilution
# Assay type: cell-based
# TEST SETTINGS: Staphylococcus aureus, 24 h, read-out: ANTIMICROBIAL ACTIVITY (MIC)
MEASUREMENT KIND: MIC (µg/mL)
Give just the number in µg/mL; leave the unit off.

Worked examples follow.
C[C@H](C(=O)NCCNCCNCCN)[C@H]1CC[C@H]2[C@@H]3CC=C4C[C@@H](O)CC[C@]4(C)[C@H]3CC[C@]12C ... 100
C[C@H](CCC(=O)NCCNCCNCCN)[C@H]1CC[C@H]2[C@@H]3CC[C@@H]4C[C@H](O)CC[C@]4(C)[C@H]3CC[C@]12C ... 6.25
C[C@H](CCC(=O)NCCNCCNCCN)[C@H]1CC[C@H]2[C@@H]3[C@H](O)C[C@@H]4C[C@H](O)CC[C@]4(C)[C@H]3C[C@H](O)[C@]12C ... 25

Problem: Please report the measured MIC for "C[C@H](CCC(=O)NCCCNCCCCNCCCN)[C@H]1CC[C@H]2[C@@H]3CC[C@@H]4CCCC[C@]4(C)[C@H]3CC[C@]12C" tested on S. aureus (29213).
Result: 3.13

Problem: Please report the measured MIC for "C[C@H](CCC(=O)NCCCNCCCCNCCCN)[C@H]1CC[C@H]2[C@@H]3[C@H](OS(=O)(=O)O)C[C@@H]4C[C@H](OS(=O)(=O)O)CC[C@]4(C)[C@H]3CC[C@]12C" tested on S. aureus (29213).
Result: 6.25

* * *

# System: S. aureus (29213)
# TEST SUMMARY: MIC, micro-broth dilution
# Assay type: cell-based
# TEST SETTINGS: Staphylococcus aureus, 24 h, read-out: ANTIMICROBIAL ACTIVITY (MIC)
MEASUREMENT KIND: MIC (µg/mL)
Give just the number in µg/mL; leave the unit off.

C[C@H](CCC(=O)NCCCNCCCCNCCCN)[C@H]1CC[C@H]2[C@@H]3CC[C@@H]4C[C@H](OS(=O)(=O)O)CC[C@]4(C)[C@H]3C[C@H](OS(=O)(=O)O)[C@]12C [SM-8] ... 25

Problem: Supply recorded MIC for C[C@H](CCC(=O)NCCCNCCCCNCCCN)[C@H]1CC[C@H]2[C@@H]3CC[C@@H]4C[C@H](O)CC[C@]4(C)[C@H]3CC[C@]12C [SM-25] here.
Result: 0.78

Problem: Supply recorded MIC for C[C@H](CCC(=O)NCCCNCCCCNCCCN)[C@H]1CC[C@H]2[C@@H]3CC[C@@H]4C[C@H](OS(=O)(=O)O)CC[C@]4(C)[C@H]3CC[C@]12C [SM-22] here.
Result: 1.56
